- assay-text: Antiradical activity assessed as gallic acid equivalents of Foline-Ciocalteu reagent reducing capacity at 1 mM preincubated for 5 mins followed by Na2CO3 addition measured after 90 mins
Could you label it class 1 if measured Activity is 0.5 equiv or higher, and class 0 otherwise?

- compound: "COc1cc([C@H]2Oc3cc([C@H]4Oc5cc(O)cc(O)c5C(=O)[C@@H]4O)ccc3O[C@@H]2COC(=O)CCCCCCCCCCC(=O)OCC2(C)CCc3c(C)c(O)c(C)c(C)c3O2)ccc1O (stereo partly specified)"
  group: "class 0"
- compound: "C=COC(=O)CCCCCCCCCCC(=O)OC[C@H]1Oc2ccc([C@H]3Oc4cc(O)cc(O)c4C(=O)[C@@H]3O)cc2O[C@@H]1c1ccc(O)c(OC)c1"
  group: "class 0"
- compound: "COc1cc(C2Oc3cc([C@H]4Oc5cc(O)cc(O)c5C(=O)[C@@H]4O)ccc3OC2CO)ccc1O (stereo partly specified)"
  group: "class 1"
- compound: "COc1cc([C@H]2Oc3cc([C@H]4Oc5cc(O)cc(O)c5C(=O)[C@@H]4O)ccc3O[C@@H]2COC(=O)CCCCCCCCCCC(=O)OCCc2ccc(O)cc2)ccc1O"
  group: "class 0"
- compound: "COc1cc([C@H]2Oc3cc([C@H]4Oc5cc(O)cc(O)c5C(=O)[C@@H]4O)ccc3O[C@@H]2COC(=O)CCCCCCCCCCC(=O)OC[C@H](O)[C@H]2OC(=O)C(O)=C2O)ccc1O"
  group: "class 1"

* * *

- System: Liver
- assay-text: Antioxidant activity against tert-butyl hydroperoxide-induced lipoperoxidation in rat liver microsomal membranes preincubated for 10 mins followed by tert-butyl hydroperoxide addition measured after 60 mins in presence of L-ascorbic acid by TBARS assay
- Format: functional, cell membranes, Microsomal Membrane
pIC50: −log10 of the molar value.

- compound: "COc1cc(C2Oc3cc([C@H]4Oc5cc(O)cc(O)c5C(=O)[C@@H]4O)ccc3OC2CO)ccc1O (stereo partly specified)"
  pIC50: 4.25

* * *

- assay-text: Antioxidant activity assessed as DPPH radical scavenging activity after 30 mins by spectrophotometric method
- Format: functional
recorded-metric: log10(IC50) (log10 of the value in µM)

- molecule: "Cc1c(C)c2c(c(C)c1O)CCC(C)(CO)O2 (configuration not stated)"
  recorded-number: 0.55
- molecule: "COc1cc([C@H]2Oc3cc([C@H]4Oc5cc(O)cc(O)c5C(=O)[C@@H]4O)ccc3O[C@@H]2COC(=O)CCCCCCCCCCC(=O)OCC2(C)CCc3c(C)c(O)c(C)c(C)c3O2)ccc1O (some centres not stated)"
  recorded-number: 0.54
- molecule: "O=C1O[C@H]([C@@H](O)CO)C(O)=C1O"
  recorded-number: 0.44
- molecule: "COc1cc(C2Oc3cc([C@H]4Oc5cc(O)cc(O)c5C(=O)[C@@H]4O)ccc3OC2CO)ccc1O (some centres not stated)"
  recorded-number: 2.39
- molecule: "COc1cc([C@H]2Oc3cc([C@H]4Oc5cc(O)cc(O)c5C(=O)[C@@H]4O)ccc3O[C@@H]2COC(=O)CCCCCCCCCCC(=O)OC[C@H](O)[C@H]2OC(=O)C(O)=C2O)ccc1O"
  recorded-number: 1.31
- molecule: "C=COC(=O)CCCCCCCCCCC(=O)OC[C@H]1Oc2ccc([C@H]3Oc4cc(O)cc(O)c4C(=O)[C@@H]3O)cc2O[C@@H]1c1ccc(O)c(OC)c1"
  recorded-number: 2.57
- molecule: "COc1cc([C@H]2Oc3cc([C@H]4Oc5cc(O)cc(O)c5C(=O)[C@@H]4O)ccc3O[C@@H]2COC(=O)CCCCCCCCCCC(=O)OCCc2ccc(O)cc2)ccc1O"
  recorded-number: 2.40
